- testSystem: human 5-HT3 receptor (Homo sapiens)
- methodNotes: Affinity for human 5-HT3 receptor by scintillation proximity assay (SPA), [9-methyl-3H]BRL-43694 competition
- Type: binding
Reported pIC50 by item:
pIC50 here is simply -log10 of the concentration when that concentration is written in mol/L.

Below: 5 compounds and their reported pIC50.
> print(dat)
                                   compound  quantitymeasured  recordedmeasurement
1  O=C1c2ccc(O)c3[nH]nc(c23)CCN1[C@@H]1CN2CCC1CC2 [Compound 12]             pIC50                 7.85
2  O=C1c2cccc3[nH]nc(c23)CCN1[C@@H]1CN2CCC1CC2 [ALB-137391, reference compound]             pIC50                 8.35
3  O=C1c2ccc(Br)c3[nH]nc(c23)CCN1[C@@H]1CN2CCC1CC2 [Compound 10]             pIC50                 7.47
4  O=C1c2ccc(F)c3[nH]nc(c23)CCN1[C@@H]1CN2CCC1CC2 [Compound 14]             pIC50                 7.13
5  [2H]c1ccc2c3c(n[nH]c13)CCN([C@@H]1CN3CCC1CC3)C2=O [Compound 13]             pIC50                 8.48

For the next question, use this compound.
Name the reported pIC50 value associated with the compound O=C1c2ccc(Cl)c3[nH]nc(c23)CCN1[C@@H]1CN2CCC1CC2 [Compound 15]
7.33

----------
Reported Ki by item:
- testSystem: human 5-HT3 receptor (Homo sapiens)
- Sequence (P46098 24-478): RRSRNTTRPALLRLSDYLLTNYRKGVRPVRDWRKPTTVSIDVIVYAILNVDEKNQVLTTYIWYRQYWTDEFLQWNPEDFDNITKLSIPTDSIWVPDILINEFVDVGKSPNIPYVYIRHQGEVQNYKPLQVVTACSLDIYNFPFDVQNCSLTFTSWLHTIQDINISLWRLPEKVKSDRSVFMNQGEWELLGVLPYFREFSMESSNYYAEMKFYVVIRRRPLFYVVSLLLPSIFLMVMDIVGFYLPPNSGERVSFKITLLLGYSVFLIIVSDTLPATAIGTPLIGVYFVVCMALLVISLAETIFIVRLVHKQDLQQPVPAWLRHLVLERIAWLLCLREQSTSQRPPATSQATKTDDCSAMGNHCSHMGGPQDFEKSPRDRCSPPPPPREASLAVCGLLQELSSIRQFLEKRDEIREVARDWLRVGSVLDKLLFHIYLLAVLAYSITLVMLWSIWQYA
Form entry: value (nM) — number only.

Name the reported Ki value associated with the molecule O=C1c2cccc3[nH]nc(c23)CCN1[C@@H]1CN2CCC1CC2 [ALB-137391, reference compound]
0.81

Can you check O=C1c2ccc(Cl)c3[nH]nc(c23)CCN1[C@@H]1CN2CCC1CC2 next?
8.53

Can you check N#Cc1ccc2c3c(n[nH]c13)CCN([C@@H]1CN3CCC1CC3)C2=O next?
65.1

Can you check [2H]c1ccc2c3c(n[nH]c13)CCN([C@@H]1CN3CCC1CC3)C2=O next?
0.6

----------
- testSystem: human 5-HT3 receptor (Homo sapiens)
- methodNotes: Affinity for human 5-HT3 receptor by scintillation proximity assay (SPA), [9-methyl-3H]BRL-43694 competition
- Format: binding
Reported Ki by item:
Form entry: value (nM) — number only.

Below: 2 compounds and their reported Ki.
> print(dat)
                                        mol  recordedmeasurement
1  O=C1c2ccc(F)c3[nH]nc(c23)CCN1[C@@H]1CN2CCC1CC2                 13.4
2  O=C1c2ccc(Br)c3[nH]nc(c23)CCN1[C@@H]1CN2CCC1CC2                  6.2

For the next question, use this compound.
Value wanted: Ki (human 5-HT3 receptor (Homo sapiens)) of entry O=C1c2ccc(O)c3[nH]nc(c23)CCN1[C@@H]1CN2CCC1CC2
2.53
